# Measured Target: Acetylcholine receptor; alpha1/beta1/delta/gamma (Homo sapiens, UniProt P02708+P07510+P11230+Q07001)
# Sequence (P02708 whole entry): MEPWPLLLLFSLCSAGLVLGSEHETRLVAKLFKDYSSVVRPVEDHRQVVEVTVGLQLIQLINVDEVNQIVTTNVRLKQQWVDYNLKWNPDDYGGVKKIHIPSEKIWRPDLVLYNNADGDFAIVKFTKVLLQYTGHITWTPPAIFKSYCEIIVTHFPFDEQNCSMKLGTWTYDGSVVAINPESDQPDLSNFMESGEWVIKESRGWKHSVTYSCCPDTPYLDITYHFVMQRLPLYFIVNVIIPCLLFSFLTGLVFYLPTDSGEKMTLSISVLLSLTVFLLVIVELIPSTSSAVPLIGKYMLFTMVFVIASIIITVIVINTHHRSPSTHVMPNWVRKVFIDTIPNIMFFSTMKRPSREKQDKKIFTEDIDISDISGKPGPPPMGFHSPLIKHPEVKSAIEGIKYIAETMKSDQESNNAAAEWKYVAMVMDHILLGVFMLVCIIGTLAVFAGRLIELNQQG
# Sequence (P07510 whole entry): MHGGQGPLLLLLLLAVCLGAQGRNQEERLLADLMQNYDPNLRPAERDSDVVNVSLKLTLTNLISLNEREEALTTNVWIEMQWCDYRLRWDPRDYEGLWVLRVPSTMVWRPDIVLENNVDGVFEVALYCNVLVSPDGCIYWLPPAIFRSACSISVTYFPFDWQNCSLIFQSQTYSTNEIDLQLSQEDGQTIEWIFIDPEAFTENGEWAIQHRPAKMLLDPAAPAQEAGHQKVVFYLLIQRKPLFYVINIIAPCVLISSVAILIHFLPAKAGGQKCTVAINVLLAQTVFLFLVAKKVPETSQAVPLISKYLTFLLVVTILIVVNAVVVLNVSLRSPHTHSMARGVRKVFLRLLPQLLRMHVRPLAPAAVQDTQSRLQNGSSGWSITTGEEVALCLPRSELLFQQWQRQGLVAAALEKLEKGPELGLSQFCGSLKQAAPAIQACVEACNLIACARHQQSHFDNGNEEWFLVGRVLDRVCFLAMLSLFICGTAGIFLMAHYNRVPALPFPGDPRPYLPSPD
# Sequence (P11230 whole entry): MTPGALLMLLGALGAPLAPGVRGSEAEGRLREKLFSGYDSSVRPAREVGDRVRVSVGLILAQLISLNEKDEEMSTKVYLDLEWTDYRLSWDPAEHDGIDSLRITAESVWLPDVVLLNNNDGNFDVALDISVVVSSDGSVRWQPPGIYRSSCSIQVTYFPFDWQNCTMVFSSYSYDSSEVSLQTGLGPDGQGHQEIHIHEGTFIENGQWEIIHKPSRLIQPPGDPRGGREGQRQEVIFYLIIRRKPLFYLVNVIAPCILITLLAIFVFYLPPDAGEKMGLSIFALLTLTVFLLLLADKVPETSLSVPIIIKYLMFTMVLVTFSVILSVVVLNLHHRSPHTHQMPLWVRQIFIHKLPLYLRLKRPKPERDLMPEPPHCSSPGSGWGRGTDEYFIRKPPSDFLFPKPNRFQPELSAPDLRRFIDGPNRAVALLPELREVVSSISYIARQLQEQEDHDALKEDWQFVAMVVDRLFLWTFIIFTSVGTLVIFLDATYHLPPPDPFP
# Sequence (Q07001 whole entry): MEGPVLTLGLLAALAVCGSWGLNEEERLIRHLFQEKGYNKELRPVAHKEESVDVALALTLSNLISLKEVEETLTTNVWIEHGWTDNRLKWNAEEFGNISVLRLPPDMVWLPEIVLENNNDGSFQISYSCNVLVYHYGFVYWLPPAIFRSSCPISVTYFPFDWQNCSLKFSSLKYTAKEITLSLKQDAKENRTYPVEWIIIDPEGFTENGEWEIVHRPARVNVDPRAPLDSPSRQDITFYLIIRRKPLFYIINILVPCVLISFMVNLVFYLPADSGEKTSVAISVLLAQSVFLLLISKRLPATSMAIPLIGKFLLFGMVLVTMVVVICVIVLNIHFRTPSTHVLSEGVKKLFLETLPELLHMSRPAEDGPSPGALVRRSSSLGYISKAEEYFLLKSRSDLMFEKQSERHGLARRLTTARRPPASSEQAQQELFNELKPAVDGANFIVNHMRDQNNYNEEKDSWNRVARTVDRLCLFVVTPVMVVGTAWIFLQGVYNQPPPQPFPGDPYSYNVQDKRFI
# Assay Details: Binding affinity to alpha-1-beta-gamma-delta nicotinic receptor
pKi: −log10 of the molar value.
Property Measured: pKi

// worked examples, pKi included
Cl.NC(=O)c1cncc(-c2ccccc2O[C@H]2C[C@@H]3CNC[C@H]2C3)c1 (stereo in doubt)    < 4.82
Cl.Fc1cncc(-c2ccccc2O[C@H]2C[C@@H]3CNC[C@H]2C3)c1 (racemic)    < 4.77
Cl.Oc1cncc(-c2ccccc2O[C@H]2C[C@@H]3CNC[C@H]2C3)c1    5.77

Lab note: next compound to report on.
Query: Fill in pKi for record CCS(=O)(=O)Nc1cncc(-c2ccccc2O[C@H]2C[C@@H]3CNC[C@H]2C3)c1.Cl (racemic)
Response: < 4.82

Origin of values: ChEMBL document CHEMBL1208792
